Listing: IC50 of selected compounds
# EXPERIMENTAL SYSTEM: hNET (Homo sapiens, UniProt P23975)
# Sequence (P23975 whole entry): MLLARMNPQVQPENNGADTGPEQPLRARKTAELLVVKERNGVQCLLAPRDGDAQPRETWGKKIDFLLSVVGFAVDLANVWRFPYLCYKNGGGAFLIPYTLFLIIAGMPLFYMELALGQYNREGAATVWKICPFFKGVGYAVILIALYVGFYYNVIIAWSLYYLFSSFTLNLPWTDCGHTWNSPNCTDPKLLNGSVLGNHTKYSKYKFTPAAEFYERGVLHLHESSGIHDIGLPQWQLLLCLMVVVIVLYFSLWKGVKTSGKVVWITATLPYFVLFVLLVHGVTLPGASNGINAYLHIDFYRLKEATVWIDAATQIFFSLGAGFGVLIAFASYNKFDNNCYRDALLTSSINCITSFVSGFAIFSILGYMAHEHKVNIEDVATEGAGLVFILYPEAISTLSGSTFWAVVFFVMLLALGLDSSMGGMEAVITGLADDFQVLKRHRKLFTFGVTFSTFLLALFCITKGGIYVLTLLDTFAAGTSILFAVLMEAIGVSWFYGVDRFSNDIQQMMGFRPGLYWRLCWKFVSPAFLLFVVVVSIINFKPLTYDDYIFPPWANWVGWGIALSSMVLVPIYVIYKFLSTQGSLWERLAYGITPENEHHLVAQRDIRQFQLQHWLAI
# TEST DETAILS: fluorescence-based norepinephrine reuptake inhibition assay (Tsuruda et al. 2010; data indicated by an asterisk)
# Type: cell-based
# Set-up: expressed in transfected cells; host or cells: HEK-293
# EXPERIMENTAL CONTEXT: norepinephrine reuptake inhibition, fluorescence-based assay (values with asterisk); read-out: NET pIC50 (converted)

The examples below pair each entry with its known result.
Tell us which IC50 value is on record for Fc1ccc(O[C@H](C2CC2)[C@H]2CCNC2)c(F)c1F
≤ 10 nM

Tell us which IC50 value is on record for CCC[C@@H](Oc1cccc(Cl)c1C(F)(F)F)[C@@H]1CCNC1
≤ 100 nM

Tell us which IC50 value is on record for CC(C)[C@@H](Oc1ccc(Cl)c(F)c1)[C@H]1CCNC1
≤ 100 nM

Tell us which IC50 value is on record for COc1c(F)ccc(O[C@@H](C2CC2)[C@H]2CCNC2)c1F
≤ 10 nM

***
Tell us which IC50 value is on record for CCC[C@@H](Oc1ccc(F)c(F)c1F)[C@H]1CCNC1
≤ 100 nM

====

# EXPERIMENTAL SYSTEM: hSERT (Homo sapiens, UniProt P31645)
# Sequence (P31645 whole entry): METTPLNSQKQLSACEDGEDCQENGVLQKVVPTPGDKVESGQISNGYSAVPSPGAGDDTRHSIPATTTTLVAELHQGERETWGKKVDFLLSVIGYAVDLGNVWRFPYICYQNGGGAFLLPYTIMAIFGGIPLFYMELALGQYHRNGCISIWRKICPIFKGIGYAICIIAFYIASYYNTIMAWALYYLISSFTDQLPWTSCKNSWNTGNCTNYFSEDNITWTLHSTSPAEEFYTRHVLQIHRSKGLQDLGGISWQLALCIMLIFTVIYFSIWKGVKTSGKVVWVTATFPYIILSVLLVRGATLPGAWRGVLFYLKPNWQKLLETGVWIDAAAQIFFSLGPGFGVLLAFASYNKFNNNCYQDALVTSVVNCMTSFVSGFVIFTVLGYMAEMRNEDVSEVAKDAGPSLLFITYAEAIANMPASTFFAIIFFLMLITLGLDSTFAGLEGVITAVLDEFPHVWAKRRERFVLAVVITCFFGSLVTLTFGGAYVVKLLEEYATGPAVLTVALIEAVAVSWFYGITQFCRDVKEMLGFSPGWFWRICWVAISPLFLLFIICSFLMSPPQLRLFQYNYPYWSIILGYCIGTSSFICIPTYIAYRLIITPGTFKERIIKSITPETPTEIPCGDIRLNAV
# TEST DETAILS: hSERT neurotransmitter uptake assay (3H-5-HT), Assay 2
# Type: cell-based
# Parameters: expressed in transfected cells; host or cells: HEK-293
# EXPERIMENTAL CONTEXT: serotonin reuptake inhibition, 3H-5-HT uptake, HEK-293 hSERT cells (values without asterisk); read-out: SERT pIC50 (converted)
Listing: IC50 of selected molecules

The examples below pair each entry with its known result.
Tell us which IC50 value is on record for CCC[C@H](Oc1c(Cl)ccc(Cl)c1Cl)[C@H]1CCNC1 [Example 4-27]
≤ 10 nM

Tell us which IC50 value is on record for CC[C@@H](Oc1cc(Cl)cc(Cl)c1)[C@@H]1CCNC1 [Example 2-19]
≤ 100 nM

Tell us which IC50 value is on record for Fc1cccc(O[C@H](C2CC2)[C@H]2CCNC2)c1Cl [Example 16-10]
≤ 100 nM

Tell us which IC50 value is on record for CCCC[C@@H](Oc1ccccc1Cl)[C@H]1CCNC1 [Example 8-1]
≤ 100 nM

Tell us which IC50 value is on record for CC(C)CC(Oc1ccc(Cl)cc1)C1CCNC1 (stereo not shown) [Example 10-10]
≤ 10 nM

Tell us which IC50 value is on record for CC(C)CC(Oc1ccc(F)cc1)C1CCNC1 (stereo not shown) [Example 10-9]
≤ 100 nM

Tell us which IC50 value is on record for CC(C)C(Oc1ccc(Cl)cc1C(F)(F)F)C1CCNC1 (stereo not shown) [Example 6-50]
≤ 100 nM

Tell us which IC50 value is on record for CC(C)C[C@H](Oc1cccc(C(F)(F)F)c1Cl)[C@H]1CCNC1 [Example 10-30]
≤ 10 nM

***
Tell us which IC50 value is on record for CC(C)C[C@H](Oc1c(F)cccc1Cl)[C@H]1CCNC1 [Example 10-52]
≤ 10 nM

Tell us which IC50 value is on record for Fc1ccc(F)c(O[C@@H](C2CC2)[C@H]2CCNC2)c1Cl [Example 16-61]
≤ 100 nM
